Test system: HL-60
Protocol notes: NCI tumour cell line growth inhibition, 48 h
Calls of active or inactive are those of the source. Rule as the data show it: active = GI50 up to about 1.1 µM and inactive = higher.
Reported GI50 by item:
Measure name: GI50

> print(dat)
                                   molecule      measured.value
1                 O/N=N/c1ccc(-c2ccccc2)cn1   0.176 µM (active)
2  COc1ccc2c(c1)CCC1C3(CCCC21C)OCCO3 (stereo not drawn)  15.9 µM (inactive)
3  COC(=O)C1=NC(=S)NC(c2ccccc2)C1c1nc2ccccc2s1 (stereo not drawn)  98.2 µM (inactive)

----------
Test system: 786-0
Protocol notes: NCI tumour cell line growth inhibition, 48 h
Calls of active or inactive are those of the source. Rule as the data show it: active = GI50 up to about 1.1 µM and inactive = higher.
Classes used: y for active, n for inactive

> print(dat)
                                    compound  classification
 1            CN1C(=O)[C@@H]2N(CSC2(C)C)C1=S               n
 2  CCN(CC)CC[n+]1ccc2c(C)c3[nH]c4ccc(O)cc4c3c(C)c2c1               n
 3  N/N=C1\C(=O)N(C2CCCCC2)C(=O)C1C(=O)NC1CCCCC1 (stereo unspecified)               n
 4  CCCCNCC(=O)O[C@]1(CC)C(=O)OCc2c1cc1n(c2=O)Cc2cc3ccccc3nc2-1               y
 5  COC(=O)C1C(=O)NC2(C)CC1c1ccccc1O2 (stereo unspecified)               n
 6  CC(=O)CC(=O)OC1CC(C)CCC1C(C)C (stereo unspecified)               n
 7  CN(C)Cc1cc(C(=O)/C=C/c2ccc(Cl)cc2)cc(CN(C)C)c1O               n
 8  CCN(CC)CCNC(=O)c1nn(-c2ccc(Cl)cc2)c2c1CCc1cc(OC)ccc1-2               n
 9  CC1CC2C(=O)NC(=O)C2c2[nH]c3ccccc3c21 (stereo unspecified)               n
10  CNC(=O)NCCCCC(NC(C)=O)C(=O)NCc1ccccc1 (stereo unspecified)               n
11  CCOC(=O)CCC1(C(=O)O[C@@H]2C[C@H](C)CC[C@H]2C(C)C)CCCCC1=O (stereo partly specified)               n
